Molecular target: human PAD4 (hPAD4) (Homo sapiens, UniProt Q9UM07)
Sequence (Q9UM07 whole entry): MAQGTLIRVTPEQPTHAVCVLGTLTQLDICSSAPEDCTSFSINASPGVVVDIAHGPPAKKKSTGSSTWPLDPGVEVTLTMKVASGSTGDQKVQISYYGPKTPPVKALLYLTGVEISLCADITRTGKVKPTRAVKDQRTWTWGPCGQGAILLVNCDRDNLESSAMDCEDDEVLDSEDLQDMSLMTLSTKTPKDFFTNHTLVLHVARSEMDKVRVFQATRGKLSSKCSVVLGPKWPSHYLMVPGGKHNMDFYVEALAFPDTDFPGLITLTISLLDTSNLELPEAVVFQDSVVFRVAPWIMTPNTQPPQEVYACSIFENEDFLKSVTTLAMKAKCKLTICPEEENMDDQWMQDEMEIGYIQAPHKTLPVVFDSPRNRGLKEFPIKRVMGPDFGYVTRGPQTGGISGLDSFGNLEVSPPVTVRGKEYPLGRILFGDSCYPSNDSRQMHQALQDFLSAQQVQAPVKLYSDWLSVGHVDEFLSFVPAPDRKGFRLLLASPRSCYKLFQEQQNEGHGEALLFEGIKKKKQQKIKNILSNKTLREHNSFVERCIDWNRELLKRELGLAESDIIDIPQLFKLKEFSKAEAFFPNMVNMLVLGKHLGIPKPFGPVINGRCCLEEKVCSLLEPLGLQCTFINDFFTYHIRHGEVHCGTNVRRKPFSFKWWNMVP
Test: RFMS human PAD4 functional assay (rapid-fire mass spectrum)
Conditions: 5 nM hPAD4 enzyme, 250 μM BAEE, 50 μM Calcium; 30 min preincubation, 90 min reaction at 37° C.
Assay readout: IC50 (nM)

Here are 2 compounds together with their reported answers.
- Compound: "COc1cc(C(=O)N2C[C@H]3CC[C@@H]2[C@@H]3N)cc2nc(-c3cc4cccnc4n3CC3CC3)n(CC3CN(C(=O)C4CCC4)C3)c12"
  IC50 [nM]: 54
- Compound: "Cn1cc(Cn2c(-c3cc4ccccc4n3CC3CC3)nc3cc(C(=O)N4CC5CCC4[C@@H]5N)cc(F)c32)cn1 (stereo partly drawn)"
  IC50 [nM]: 30

(A) COc1cc(C(=O)N2C[C@H]3CC[C@@H]2[C@@H]3N)cc2nc(-c3cc4ccccc4n3CC3CC3)n(CC3CN(C(=O)c4cnn(C)c4)C3)c12
(B) COc1cc(C(=O)N2C[C@H]3CC[C@@H]2[C@@H]3N)cc2nc(-c3cc4cccnc4n3CC3CC3)n(C3CN(C(=O)c4ccc(Cl)nc4)C3)c12
(C) COc1cc(C(=O)C2C[C@H]3CC[C@H]2[C@@H]3N)cc2nc(-c3cc4ccccc4n3CC3CC3)n(C[C@H]3CCNC3)c12 (stereo partly drawn)
(D) COc1cc(C(=O)N2C[C@H](N)C[C@@H](F)C2)cc2nc(-c3cc4cccnc4n3CC3CC3)n(Cc3ccnn3C)c12
(E) COc1cc(C(=O)N2C[C@H]3CC[C@@H]2[C@@H]3N)cc2nc(-c3cc4ccccc4n3CC3CC3)n(Cc3ccncc3)c12
q: Given 5 compounds, produce a descending ranking by IC50. A ranking is expressed here by listing the labels in the requested order.
a: D, E, B, C, A
(D: 606 nM, E: 179 nM, B: 111 nM, C: 33 nM, A: 22 nM)

Values compiled from patent US12692254B2.
